- TARGET: human FSH receptor (Homo sapiens, UniProt P23945)
- Construct: expressed in transfected cells; host or cells: CHO (Chinese Hamster Ovary) cells, stably transfected, cotransfected with CRE-luciferase reporter
- Sequence (P23945 18-695): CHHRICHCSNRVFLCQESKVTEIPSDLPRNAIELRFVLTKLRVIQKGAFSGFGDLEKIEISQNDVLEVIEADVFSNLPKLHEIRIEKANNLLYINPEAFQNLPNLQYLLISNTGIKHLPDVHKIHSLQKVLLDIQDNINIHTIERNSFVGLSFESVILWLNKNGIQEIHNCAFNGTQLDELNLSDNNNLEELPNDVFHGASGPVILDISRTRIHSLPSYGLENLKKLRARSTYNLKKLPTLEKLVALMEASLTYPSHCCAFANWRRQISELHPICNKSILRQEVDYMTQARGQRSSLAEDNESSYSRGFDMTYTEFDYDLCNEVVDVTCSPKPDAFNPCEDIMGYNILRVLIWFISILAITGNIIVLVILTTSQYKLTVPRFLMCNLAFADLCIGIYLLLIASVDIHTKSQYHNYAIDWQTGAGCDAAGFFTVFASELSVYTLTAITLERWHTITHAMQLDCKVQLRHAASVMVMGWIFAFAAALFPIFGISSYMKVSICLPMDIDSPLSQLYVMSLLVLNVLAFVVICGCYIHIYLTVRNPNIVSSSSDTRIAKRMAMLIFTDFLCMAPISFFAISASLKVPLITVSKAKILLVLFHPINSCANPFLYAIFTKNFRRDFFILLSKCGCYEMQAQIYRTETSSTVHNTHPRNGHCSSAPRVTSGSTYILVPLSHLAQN
- TEST DESCRIPTION: Agonistic activity at the human FSH receptor expressed in CHO cells (CRE-luciferase reporter)
- Type: cell-based
- STUDY CONDITIONS: CHO cells stably transfected with human FSH receptor and CRE/luciferase reporter; 4 hours incubation; pEC50 is -log EC50; read-out: hFSHRago (CHO luc) pEC50 (converted)
QUANTITY: EC50 (nM)
Number only, in nM; omit the unit.

Would you please look over these solved cases?
1. COc1cc2c(cc1C(=O)N1CCOCC1)-c1c(-c3cccs3)c3c(n1CC2)C(=O)N(C(C)(C)C)CCCC3 :: 9.77
2. COc1cc2c(cc1F)-c1c(-c3cccs3)c3c(n1CC2)C(=O)N(C(C)(C)C)CCCC3 [Compound 27c] :: 30.2

q: Requested field: EC50. Item: COc1cc2c(cc1-n1cc(C[C@@H](O)CO)nn1)-c1c(-c3cccs3)c3c(n1CC2)C(=O)N(C(C)(C)C)CCCC3 [Compound 20g]
a: 3.24

q: Requested field: EC50. Item: COc1cc2c(cc1OC(C)C)-c1c(-c3cccs3)c3c(n1CC2)C(=O)N(C(C)C)CCC3
a: 50.1

====

Each record here notes measured EC50.
- TARGET: human FSH receptor (Homo sapiens, UniProt P23945)
- Construct: expressed in transfected cells; host or cells: CHO (Chinese Hamster Ovary) cells, stably transfected, cotransfected with CRE-luciferase reporter
- TEST DESCRIPTION: Agonistic activity at the human FSH receptor expressed in CHO cells (CRE-luciferase reporter)
- Type: cell-based
- STUDY CONDITIONS: CHO cells stably transfected with human FSH receptor and CRE/luciferase reporter; 4 hours incubation; pEC50 is -log EC50; read-out: hFSHRago (CHO luc) pEC50 (converted)
- From the text: The term EC50 means the concentration of the test compound that elicits half-maximal (50%) stimulation compared to the compound's maximally attainable effect. pEC50 is the negative log of EC50. The values can be determined e.g. in a cell line transfected with a FSH receptor gene and cotransfected with a cAMP responsive element/promoter directing the expression of a reporter gene. For the determination a software program such as MathIQ (version 2.0, ID Business Solutions Limited) can be used. […]
Number only, in nM; omit the unit.

Would you please look over these solved cases?
1. COC(=O)[C@@H]1CCCN1C(=O)c1cc2c(cc1OC)CCn1c3c(c(-c4cccs4)c1-2)CCCCN(C(C)(C)C)C3=O :: 37.2
2. COc1cc2c(cc1-c1ncco1)-c1c(-c3cccs3)c3c(n1CC2)C(=O)N(C(C)(C)C)CCC3 :: 11.5
3. COc1cc2c(cc1-c1cncs1)-c1c(-c3cncs3)c3c(n1CC2)C(=O)N(C(C)(C)C)CCOC3 [Compound 11l] :: 12.6

q: Requested field: EC50. Item: COc1cc2c(cc1C(=O)CC[C@@H](O)CO)-c1c(-c3cccs3)c3c(n1CC2)C(=O)N(C(C)(C)C)CCCC3 [Compound 28b]
a: 2.63

q: Requested field: EC50. Item: CCS(=O)(=O)c1cc2c(cc1OC)CCn1c3c(c(-c4cncs4)c1-2)CCCCN(C(C)(C)C)C3=O [Compound 23g]
a: 10.7

q: Requested field: EC50. Item: COc1cc2c(cc1-c1cccc(F)n1)-c1c(-c3cncs3)c3c(n1CC2)C(=O)N(C(C)(C)C)CCOC3 [Compound 11k]
a: 13.8

q: Requested field: EC50. Item: COc1cc2c(cc1[N+](=O)[O-])-c1c(-c3cccs3)c3c(n1CC2)C(=O)N(C(C)(C)C)CC3
a: 100

q: Requested field: EC50. Item: COc1cc2c(cc1CCCO)-c1c(-c3cccs3)c3c(n1CC2)C(=O)N(C(C)(C)C)CCCC3 [Compound 21j]
a: 0.251

q: Requested field: EC50. Item: COc1cc2c(cc1N)-c1c(-c3cccs3)c3c(n1CC2)C(=O)N(C(C)(C)C)CCCC3 [Compound 20b]
a: 39.8

q: Requested field: EC50. Item: C=CCCNC(=O)c1cc2c(cc1OC)CCn1c3c(c(-c4cccs4)c1-2)CCCCN(C(C)(C)C)C3=O
a: 0.468

====

- TARGET: human FSH receptor (Homo sapiens)
- Construct: expressed in transfected cells; host or cells: CHO (Chinese Hamster Ovary) cells, stably transfected, cotransfected with CRE-luciferase reporter
- TEST DESCRIPTION: Agonistic activity at the human FSH receptor expressed in CHO cells (CRE-luciferase reporter)
- Format: cell-based
- STUDY CONDITIONS: CHO cells stably transfected with human FSH receptor and CRE/luciferase reporter; 4 hours incubation; pEC50 is -log EC50; read-out: hFSHRago (CHO luc) pEC50 (converted)
QUANTITY: EC50 (nM)
Number only, in nM; omit the unit.

1. COc1cc2c(cc1-c1cccnc1)-c1c(-c3cccnc3)c3c(n1CC2)C(=O)N(C(C)(C)C)CCC3 [Compound 13e] :: 42.7
2. COc1cc2c(cc1OC(C)C)-c1c(-c3cccs3)c3c(n1CC2)C(=O)N(C(C)(C)C)C3 [Compound 15f] :: 617

In the following, a different molecule is considered.
q: Requested field: EC50. Item: COc1cc2c(cc1OC(C)C)-c1c(-c3cccs3)c3c(n1CC2)C(=O)N(C(C)(C)C)CCC3 [Compound 6e]
a: 11

====

Each record here notes measured EC50.
- TARGET: human FSH receptor (Homo sapiens, UniProt P23945)
- Construct: expressed in transfected cells; host or cells: CHO (Chinese Hamster Ovary) cells, stably transfected, cotransfected with CRE-luciferase reporter
- TEST DESCRIPTION: Agonistic activity at the human FSH receptor expressed in CHO cells (CRE-luciferase reporter)
- Format: cell-based
- STUDY CONDITIONS: CHO cells stably transfected with human FSH receptor and CRE/luciferase reporter; 4 hours incubation; pEC50 is -log EC50; read-out: hFSHRago (CHO luc) pEC50 (converted)
Number only, in nM; omit the unit.

1) COc1cc2c(cc1-c1cccnc1)-c1c(C3=CCOCC3)c3c(n1CC2)C(=O)N(C(C)(C)C)CCCC3 [Compound 25c] :: 6.31
2) COc1cc2c(cc1C(=O)NCCO)-c1c(-c3cccs3)c3c(n1CC2)C(=O)N(C(C)(C)C)CCCC3 [Compound 26c7] :: 0.427
3) COc1cc2c(cc1-n1cc(CCO)nn1)-c1c(-c3cccs3)c3c(n1CC2)C(=O)N(C(C)(C)C)CCCC3 [Compound 20d] :: 0.589
4) COc1cc2c(cc1OC(C)C)-c1c(-c3ccncc3)c3c(n1CC2)C(=O)N(C(C)(C)C)CCOC3 [Compound 18f] :: 47.9
5) COc1cc2c(cc1OC(C)C)-c1c(-c3cccnc3)c3c(n1CC2)C(=O)N(C(C)(C)C)CCOC3 [Compound 18e] :: 63.1

In the following, a different compound is considered.
q: Requested field: EC50. Item: COc1cc2c(cc1[C@H](O)[C@@H](O)CO)-c1c(-c3cccs3)c3c(n1CC2)C(=O)N(C(C)(C)C)CCCC3 [Compound 21h]
a: 5.5

====

- TARGET: human FSH receptor (Homo sapiens, UniProt P23945)
- Construct: expressed in transfected cells; host or cells: CHO (Chinese Hamster Ovary) cells, stably transfected, cotransfected with CRE-luciferase reporter
- TEST DESCRIPTION: Agonistic activity at the human FSH receptor expressed in CHO cells (CRE-luciferase reporter)
- Assay type: cell-based
- STUDY CONDITIONS: CHO cells stably transfected with human FSH receptor and CRE/luciferase reporter; 4 hours incubation; pEC50 is -log EC50; read-out: hFSHRago (CHO luc) pEC50 (converted)
Each record here notes measured EC50.
Number only, in nM; omit the unit.

Would you please look over these solved cases?
1. COc1cc2c(cc1-c1ncco1)-c1c(-c3cccs3)c3c(n1CC2)C(=O)N(C(C)C)CCN(C(=O)C(C)C)C3 [Compound 10x] :: 1260
2. COc1cc2c(cc1-c1c(C)nn(C)c1C)-c1c(-c3cccs3)c3c(n1CC2)C(=O)N(C(C)C)CCN(C(=O)C(C)C)C3 [Compound 10s] :: 5010
3. COc1cc2c(cc1C(=O)NCCN1CCOCC1)-c1c(-c3cccs3)c3c(n1CC2)C(=O)N(C(C)(C)C)CCCC3 :: 1.78

In the following, a different compound is considered.
q: Requested field: EC50. Item: COc1cc2c(cc1-c1cccnc1)-c1c(-c3cccs3)c3c(n1CC2)C(=O)N(C)C(C)(C)CC3 [Compound 12l]
a: 12
